Field: inhibition at 20 µM. Provide a value for each of the molecules that follow.
measured.target: His6-AspH315–758 (human aspartate/asparagine-β-hydroxylase, AspH) (Homo sapiens, UniProt Q12797)
Construct: N-Terminally His6-tagged human AspH315–758 (His6-AspH315–758) was produced in E. coli BL21 (DE3) cells; made in house; host or cells: E. coli BL21 (DE3), pET-28a(+) vector
Sequence (Q12797 315-758): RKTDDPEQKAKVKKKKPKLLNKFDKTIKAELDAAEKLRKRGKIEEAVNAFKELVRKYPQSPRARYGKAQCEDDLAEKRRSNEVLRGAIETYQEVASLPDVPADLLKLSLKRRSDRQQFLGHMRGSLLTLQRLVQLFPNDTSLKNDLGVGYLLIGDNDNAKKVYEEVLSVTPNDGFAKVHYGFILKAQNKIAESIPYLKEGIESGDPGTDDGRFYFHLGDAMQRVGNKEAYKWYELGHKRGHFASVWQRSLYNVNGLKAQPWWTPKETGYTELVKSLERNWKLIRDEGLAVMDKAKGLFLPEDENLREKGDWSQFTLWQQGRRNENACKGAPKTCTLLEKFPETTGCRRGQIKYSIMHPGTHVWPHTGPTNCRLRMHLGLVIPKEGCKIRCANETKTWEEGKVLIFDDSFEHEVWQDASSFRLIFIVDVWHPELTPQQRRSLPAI
procedure.details: SPE-MS AspH inhibition assay (LOPAC screen at fixed 20 μM and IC50 dose-response), hydroxylation of cyclic peptide hFX-CP101–119
Type: biochemical
assay.context: LOPAC Plate 4, compound at 20 uM; read-out: % inhibition
Where a name gives a salt, the structure may show the parent alone.
Give your result in % as a bare value.

Please fill in: inhibition at 20 µM reported for C=C1C[C@@]23CC[C@H]4[C@@](C)(CCC[C@@]4(C)C(=O)O)[C@@H]2CC[C@]1(O)C3 = -3.02

NCCCNCCCCNCCCN [Spermine tetrahydrochloride] yielded inhibition at 20 µM of -8.64

The molecule NC(=Nc1ccccc1)NC(=O)c1nc(Cl)c(N)nc1N [Phenamil methanesulfonate] showed inhibition at 20 µM equal to -10.3

For C=CC1=C(C)c2cc3[nH]c(cc4nc(cc5[nH]c(cc1n2)c(C)c5CCC(=O)O)C(CCC(=O)O)=C4C)c(C)c3C=C [Protoporphyrin IX disodium] the molecule record lists inhibition at 20 µM as 46

Record CCCCNC(=O)NS(=O)(=O)c1ccc(C)cc1 [Tolbutamide] , field inhibition at 20 µM: -2.2

Data point: CCCCCCCCCCCCCCSCC(=O)O ; inhibition at 20 µM = 29.2

Sure, the documented inhibition at 20 µM for N#CC(C#N)=C(N)/C(C#N)=C/c1cc(O)c(O)c(O)c1 [Tyrphostin 51, reference compound] is 101

Documented inhibition at 20 µM of O=c1c(O)c(-c2ccc(O)c(O)c2)oc2cc(O)cc(O)c12 [quercetin, reference compound] : 97.8

So, CC(NCCc1ccc(O)cc1)C(O)c1ccc(O)cc1 (centres unmarked) [Ritodrine hydrochloride] ? Its inhibition at 20 µM was -2.24

Quick note, inhibition at 20 µM for CCC(=O)c1ccc2c(c1)N(CCCN(C)C)c1ccccc1S2 [Propionylpromazine hydrochloride] landed at -24

Measured inhibition at 20 µM of C[C@H](O)C(=O)C1=Nc2c(nc(N)[nH]c2=O)NC1 [Sepiapterin] : -11.9

Entry NCCCCNCCCN [Spermidine trihydrochloride] ; inhibition at 20 µM = 0.53

Summary for this molecule, NCCS(=O)(=O)O : inhibition at 20 µM is -9.43

Documented inhibition at 20 µM of O=C(c1ccc(OCCN2CCCCC2)cc1)c1c(-c2ccc(O)cc2)sc2cc(O)ccc12 [Raloxifene hydrochloride] : -10.8

Memo: CNCC[C@@H](Oc1ccccc1C)c1ccccc1 , reported inhibition at 20 µM: -7.33

// field: inhibition at 20 µM; key: O=C(O)CP(=O)(O)O ; value = 55.5

The reported value for CC1=C(/C=C/C(C)=C/C=C/C(C)=C/C(=O)O)C(C)(C)CCC1 in terms of inhibition at 20 µM is 17.2

----------
measured.target: His6-AspH315–758 (human aspartate/asparagine-β-hydroxylase, AspH) (Homo sapiens, UniProt Q12797)
Construct: N-Terminally His6-tagged human AspH315–758 (His6-AspH315–758) was produced in E. coli BL21 (DE3) cells; made in house; host or cells: E. coli BL21 (DE3), pET-28a(+) vector
procedure.details: SPE-MS AspH inhibition assay (LOPAC screen at fixed 20 μM and IC50 dose-response), hydroxylation of cyclic peptide hFX-CP101–119
Format: biochemical
assay.context: plate 5 (Pfitzer), test compounds at fixed 20 μM; mean conversion DMSO 32.88
Hi, to clarify the labels: yes (1) covers Plate 5 (% conversion) from 30% upward, no (0) covers anything below 30%.

Hello, I need to know if N#Cc1ccc([C@H]2CCCC[C@H]2O)cc1C(F)(F)F has measured Plate 5 (% conversion) not below 30%. Thanks! no (0)

Does Plate 5 (% conversion) meet or surpass 30% for CN(CCOc1ccc(NS(C)(=O)=O)cc1)CCc1ccc(NS(C)(=O)=O)cc1 [Dofetilide] ? yes (1)

Given the entry CN(c1ccccc1CNc1nc(Nc2ccc3c(c2)CC(=O)N3)ncc1C(F)(F)F)S(C)(=O)=O , answer whether its Plate 5 (% conversion) meets or surpasses 30%. no (0)

I'd appreciate it if you could say whether O=S(=O)(N[C@H](CO)C(C(F)(F)F)C(F)(F)F)c1ccc(Cl)s1 has Plate 5 (% conversion) at least equal to 30%. yes (1)

----------
measured.target: His6-AspH315–758 (human aspartate/asparagine-β-hydroxylase, AspH) (Homo sapiens)
Construct: N-Terminally His6-tagged human AspH315–758 (His6-AspH315–758) was produced in E. coli BL21 (DE3) cells; made in house; host or cells: E. coli BL21 (DE3), pET-28a(+) vector
procedure.details: SPE-MS AspH inhibition assay (LOPAC screen at fixed 20 μM and IC50 dose-response), hydroxylation of cyclic peptide hFX-CP101–119
Format: biochemical
assay.context: LOPAC compound at fixed 20 uM; plate 1, normalised to DMSO and 2,4-PDCA controls
Structures can show the parent of a compound that is named as a salt.
recorded.endpoint: Plate 1 (% inhibition) (%)
The figure you give is taken to be in %; do not add the unit.

The reported His6-AspH315–758 (human aspartate/asparagine-β-hydroxylase, AspH) (Homo sapiens) Plate 1 (% inhibition) of NCCCCCC(=O)O is -0.76

Param item: Cc1cc(Nc2ncc3cc(-c4c(Cl)cccc4Cl)c(=O)n(C)c3n2)ccc1F ; param system: His6-AspH315–758 (human aspartate/asparagine-β-hydroxylase, AspH) (Homo sapiens); output Plate 1 (% inhibition): -5.67

Field Plate 1 (% inhibition) (His6-AspH315–758 (human aspartate/asparagine-β-hydroxylase, AspH) (Homo sapiens)), entry NC12CC3CC(CC(C3)C1)C2 [Amantadine hydrochloride] : -1.83

Item CC(=O)Oc1ccccc1C(=O)O was tested on His6-AspH315–758 (human aspartate/asparagine-β-hydroxylase, AspH) (Homo sapiens); the reported Plate 1 (% inhibition) is -0.51

Measured on His6-AspH315–758 (human aspartate/asparagine-β-hydroxylase, AspH) (Homo sapiens), CC(=O)NCCc1c[nH]c2ccccc12 has a documented Plate 1 (% inhibition) of -6.27

For C[N+](C)(C)CCOC(N)=O on His6-AspH315–758 (human aspartate/asparagine-β-hydroxylase, AspH) (Homo sapiens), measured Plate 1 (% inhibition) was -3.17

GET /values?item= Nc1nc2c(ncn2COCCO)c(=O)[nH]1 &system= His6-AspH315–758 (human aspartate/asparagine-β-hydroxylase, AspH) (Homo sapiens) returns Plate 1 (% inhibition): -3.39

The value of Plate 1 (% inhibition) recorded for CC(=O)O[C@]1(C(C)=O)CC[C@H]2[C@@H]3C=C(Cl)C4=CC(=O)[C@@H]5C[C@@H]5[C@]4(C)[C@H]3CC[C@@]21C [Cyproterone acetate] when tested on His6-AspH315–758 (human aspartate/asparagine-β-hydroxylase, AspH) (Homo sapiens) reads -9.70

Reading of Plate 1 (% inhibition) for Clc1cccc(Cl)c1N=C1NCCN1 [Clonidine hydrochloride] with His6-AspH315–758 (human aspartate/asparagine-β-hydroxylase, AspH) (Homo sapiens): -13.86

Reading of Plate 1 (% inhibition) for Cl.NCCCCC(=O)O [5-Aminovaleric acid hydrochloride] with His6-AspH315–758 (human aspartate/asparagine-β-hydroxylase, AspH) (Homo sapiens): 15.05

Observed Plate 1 (% inhibition), His6-AspH315–758 (human aspartate/asparagine-β-hydroxylase, AspH) (Homo sapiens), Cc1cn([C@H]2C[C@H](N=[N+]=[N-])[C@@H](CO)O2)c(=O)[nH]c1=O : -7.24

// returns Plate 1 (% inhibition) for N=C(N)c1ccccc1 [Benzamidine hydrochloride] with His6-AspH315–758 (human aspartate/asparagine-β-hydroxylase, AspH) (Homo sapiens); value = -1.42

----------
measured.target: His6-AspH315–758 (human aspartate/asparagine-β-hydroxylase, AspH) (Homo sapiens)
Construct: N-Terminally His6-tagged human AspH315–758 (His6-AspH315–758) was produced in E. coli BL21 (DE3) cells; made in house; host or cells: E. coli BL21 (DE3), pET-28a(+) vector
procedure.details: SPE-MS AspH inhibition assay (LOPAC screen at fixed 20 μM and IC50 dose-response), hydroxylation of cyclic peptide hFX-CP101–119
Assay type: biochemical
assay.context: LOPAC compound at fixed 20 uM; substrate conversion, plate 1
Structures can show the parent of a compound that is named as a salt.
Exercise: state measured Plate 1 (% conversion) for each of the compounds provided.
I'd appreciate it if you included the unit after the number.

Entry CCCCS(=N)(=O)CC[C@H](N)C(=O)O (stereo partly drawn) [L-Buthionine-sulfoximine] — recorded Plate 1 (% conversion) = 34.70%

So for CN/C(=N/CCSCc1nc[nH]c1C)NC#N [Cimetidine] , the logged Plate 1 (% conversion) turned out to be 36.02%

Lab note: NCC(O)(CS(=O)(=O)O)c1ccc(Cl)cc1 (centres unmarked) [2-Hydroxysaclofen] gave Plate 1 (% conversion) of 38.16%

Quick note, Plate 1 (% conversion) for O=C1NC(=O)[C@@]2(CCOc3ccc(F)cc32)N1 [Sorbinil] landed at 40.55%

// field: Plate 1 (% conversion); key: C=CCc1ccccc1OCC(O)CNC(C)C (centres unmarked) [Alprenolol hydrochloride] ; value = 39.00%
